Could you please report measured Functional assay IL-8 for the items listed next?
Biological target: T1, CD134 expressed on the cell surface of HT1080_OX40 cells (human, UniProt P43489 29-277); further: test concentration or dose not given here
T1 sequence (looked up): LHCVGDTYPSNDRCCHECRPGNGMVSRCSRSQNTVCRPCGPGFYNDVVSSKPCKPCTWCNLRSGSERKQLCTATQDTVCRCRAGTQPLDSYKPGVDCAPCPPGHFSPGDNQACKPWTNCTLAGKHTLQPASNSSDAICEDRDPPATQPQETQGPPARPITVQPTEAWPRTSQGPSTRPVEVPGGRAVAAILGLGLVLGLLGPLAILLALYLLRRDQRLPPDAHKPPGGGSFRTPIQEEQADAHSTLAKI
Assay: cell-based or functional assay
Give the value in abs. corr. but do not write abs. corr. after it.

Q. What value of Functional assay IL-8 has been recorded for this entry: P018.S.12.A.G04 (antibody, V domains shown, V regions on human Ig constant parts; also called AB134_86) VH: QSVEESGGRLVTPGTPLTLTCTVSGFSLNSYDMSWVRQAPGKGLEWIGFISAIDNTYYASWAKGRFTISKTSTTVDLKITSPTTEDTATYFCASDSYGWAYVYYFNLWGPGTLVTVSS VL: AVVLTQTPASVSATVGGTVTINCRASEDIGSYLGWYQQKPGQPPKLLIHDASDLASGVPSRFSGSGSGTEFTLTISGVQSDDAATYYCQSAWYSSDSDKMAFGGGTEVVVK
A. 0.407

Q. What value of Functional assay IL-8 has been recorded for this entry: P018.S.04.A.F06 (antibody, V domains shown, V regions on human Ig constant parts; also called AB134_13) VH: QSVEESGGRLVTPGTPLTLTCTVSGIDLSSSAMSWVRQAPGKGLEWIGIIGYNDFTYYANWAKGRFTISKTSTTVDLKMTSPTTEDTATYFCARGGSSSYSDYVFDPWGPGTLVTVSS VL: AFEMTQTPSSVSEPVGGTVTIKCQASQSIYSNLAWYQQKPGQRPKLLIYDASDLASGVPSRFSGSGYGTEFTLTISDLESADAATYYCQSYYGISSYGVAFGGGTEVVVK
A. 2.07
